- System: human Factor 7 mRNA
- Protocol summary: Dose-dependent antisense inhibition of human Factor 7 in HepB3 cells, lipofectin
- Format: cell-based
- Condition: Table 3, 25.0 nM, approximately 16 hours
Strand notation (5' to 3'): a small letter for the sugar, then the base; units joined by * are phosphorothioate-linked, units joined directly phosphodiester-linked; [ ] holds rarer units or linkages, { } end groups; capitals alone tell only the bases. e = 2'-O-(2-methoxyethyl) (MOE); [5mC] = 5-methylcytosine; d = 2'-deoxy (DNA)
Assay readout: percent inhibition of Factor 7 (%)
Expressed in %, but write only the number.

Record excerpt, results attached:
{"columns": ["Substance", "Output unit", "percent inhibition of Factor 7"],
 "data": [
  ["407900 (antisense e[5mC]*e[5mC]*e[5mC]*e[5mC]*eA*d[5mC]*dA*dA*dT*dT*d[5mC]*dG*dG*d[5mC]*d[5mC]*eT*eT*eG*eG*eG) [compound 407900]", "%", 87],
  ["407641 (antisense e[5mC]*e[5mC]*eT*eG*eA*dG*dG*d[5mC]*d[5mC]*dA*dG*d[5mC]*dA*dG*dA*eT*e[5mC]*eA*e[5mC]*eG) [compound 407641]", "%", 84],
  ["407643 (antisense e[5mC]*eA*e[5mC]*eA*e[5mC]*dA*dT*dG*dG*dA*dG*dT*d[5mC]*dA*dG*e[5mC]*eA*eT*e[5mC]*eG) [compound 407643]", "%", 76]
]}

Incoming: Send back human Factor 7 mRNA percent inhibition of Factor 7 of 407936 (antisense eG*eG*e[5mC]*eA*eT*dT*d[5mC]*dG*d[5mC]*d[5mC]*dA*d[5mC]*d[5mC]*dA*dT*eG*e[5mC]*eA*eT*eG) [compound 407936] only.
Outgoing: 86

Incoming: Print human Factor 7 mRNA percent inhibition of Factor 7 for 407939 (antisense eT*eG*e[5mC]*eA*eG*d[5mC]*d[5mC]*d[5mC]*dG*dG*d[5mC]*dA*d[5mC]*d[5mC]*d[5mC]*eA*eG*e[5mC]*eG*eA) [compound 407939] .
Outgoing: 91

----------
percent inhibition of Factor 7 mRNA, relative to untreated control cells by entry:
- Tested on: human Factor 7 mRNA
- Protocol summary: Dose-dependent antisense inhibition of human Factor 7 in HepB3 cells, lipofectin
- Type: cell-based
- Condition: HepB3 cells, approx. 16 hours (Table 14)
Strand notation (5' to 3'): a small letter for the sugar, then the base; units joined by * are phosphorothioate-linked, units joined directly phosphodiester-linked; [ ] holds rarer units or linkages, { } end groups; capitals alone tell only the bases. e = 2'-O-(2-methoxyethyl) (MOE); [5mC] = 5-methylcytosine; d = 2'-deoxy (DNA)
Quick note: give the figure in %, leave out the unit.

{"columns": ["Substance", "Observed value"],
 "data": [
  ["422183 (antisense eG*e[5mC]*eG*d[5mC]*d[5mC]*dA*d[5mC]*d[5mC]*d[5mC]*dG*d[5mC]*d[5mC]*dG*dG*d[5mC]*dT*d[5mC]*eT*eG*e[5mC]) [compound 422183]", 37],
  ["422215 (antisense eG*eT*eT*d[5mC]*dT*dG*d[5mC]*dA*dG*dG*dA*dG*d[5mC]*dG*dG*d[5mC]*d[5mC]*eT*eA*eA) [compound 422215]", 30],
  ["422152 (antisense eA*eT*eG*d[5mC]*dA*dT*dG*dG*dT*dG*dA*dT*dG*d[5mC]*dT*dT*d[5mC]*eT*eG*eA) [compound 422152]", 29],
  ["407939 (antisense eT*eG*e[5mC]*eA*eG*d[5mC]*d[5mC]*d[5mC]*dG*dG*d[5mC]*dA*d[5mC]*d[5mC]*d[5mC]*eA*eG*e[5mC]*eG*eA) [compound 407939]", 35]
]}

Incoming: Name the value of percent inhibition of Factor 7 mRNA, relative to untreated control cells reported for 422295 (antisense e[5mC]*eG*dA*dG*dT*dT*d[5mC]*dT*dG*d[5mC]*dA*dG*dG*dA*dG*e[5mC]*eG*eG*e[5mC]*e[5mC]) [compound 422295] when tested on human Factor 7 mRNA.
Outgoing: 22

Incoming: State the measured percent inhibition of Factor 7 mRNA, relative to untreated control cells (human Factor 7 mRNA) of 422150 (antisense eG*e[5mC]*eA*dT*dG*dG*dT*dG*dA*dT*dG*d[5mC]*dT*dT*d[5mC]*dT*dG*eA*eA*eT) [compound 422150]
Outgoing: 23

Incoming: Give percent inhibition of Factor 7 mRNA, relative to untreated control cells; test system human Factor 7 mRNA; substance 422142 (antisense eG*eA*eG*eT*eT*d[5mC]*dT*dG*d[5mC]*dA*dG*dG*dA*dG*d[5mC]*eG*eG*e[5mC]*e[5mC]*eT) [compound 422142]
Outgoing: 34

Incoming: Write down measured percent inhibition of Factor 7 mRNA, relative to untreated control cells (human Factor 7 mRNA) for this substance. 422292 (antisense eG*eT*dT*d[5mC]*dT*dG*d[5mC]*dA*dG*dG*dA*dG*d[5mC]*dG*dG*e[5mC]*e[5mC]*eT*eA*eA) [compound 422292]
Outgoing: 21

Incoming: Tell me percent inhibition of Factor 7 mRNA, relative to untreated control cells of 422228 (antisense eT*eG*d[5mC]*dA*dT*dG*dG*dT*dG*dA*dT*dG*d[5mC]*dT*dT*e[5mC]*eT*eG*eA*eA) [compound 422228] when tested on human Factor 7 mRNA.
Outgoing: 25

Incoming: Quote human Factor 7 mRNA percent inhibition of Factor 7 mRNA, relative to untreated control cells for entry 422229 (antisense eA*eT*dG*d[5mC]*dA*dT*dG*dG*dT*dG*dA*dT*dG*d[5mC]*dT*eT*e[5mC]*eT*eG*eA) [compound 422229] .
Outgoing: 32

Incoming: Given 422177 (antisense e[5mC]*e[5mC]*e[5mC]*dG*d[5mC]*d[5mC]*dG*dG*d[5mC]*dT*d[5mC]*dT*dG*d[5mC]*dT*d[5mC]*dA*eT*e[5mC]*e[5mC]) [compound 422177] , report its percent inhibition of Factor 7 mRNA, relative to untreated control cells on human Factor 7 mRNA.
Outgoing: 24

----------
- Tested on: human Factor 7 mRNA
- Protocol summary: Dose-dependent antisense inhibition of human Factor 7 in HepB3 cells, electroporation
- Format: cell-based
- Condition: 50 μM, approx. 16 hours (Table 15, Example 7)
Strand notation (5' to 3'): a small letter for the sugar, then the base; units joined by * are phosphorothioate-linked, units joined directly phosphodiester-linked; [ ] holds rarer units or linkages, { } end groups; capitals alone tell only the bases. e = 2'-O-(2-methoxyethyl) (MOE); [5mC] = 5-methylcytosine; d = 2'-deoxy (DNA)
Assay readout: percent inhibition of Factor 7 mRNA, relative to untreated control cells (%)
Hi! Could you send only the number? It should be in %, unit omitted.

Example results:
{"columns": ["Substance", "Observed value"],
 "data": [
  ["422086 (antisense eT*eG*e[5mC]*eA*eT*dG*dG*dT*dG*dA*dT*dG*d[5mC]*dT*dT*e[5mC]*eT*eG*eA*eA) [compound 422086]", 75],
  ["422252 (antisense e[5mC]*eG*d[5mC]*d[5mC]*dG*dG*d[5mC]*dT*d[5mC]*dT*dG*d[5mC]*dT*d[5mC]*dA*eT*e[5mC]*e[5mC]*e[5mC]*e[5mC]) [compound 422252]", 58],
  ["422140 (antisense eG*eT*eT*e[5mC]*eT*dG*d[5mC]*dA*dG*dG*dA*dG*d[5mC]*dG*dG*e[5mC]*e[5mC]*eT*eA*eA) [compound 422140]", 69],
  ["422215 (antisense eG*eT*eT*d[5mC]*dT*dG*d[5mC]*dA*dG*dG*dA*dG*d[5mC]*dG*dG*d[5mC]*d[5mC]*eT*eA*eA) [compound 422215]", 68]
]}

As a next step, examine the substance that follows.
Incoming: # lookup: human Factor 7 mRNA percent inhibition of Factor 7 mRNA, relative to untreated control cells, key = 422217 (antisense eG*eA*eG*dT*dT*d[5mC]*dT*dG*d[5mC]*dA*dG*dG*dA*dG*d[5mC]*dG*dG*e[5mC]*e[5mC]*eT) [compound 422217]
Outgoing: 61

----------
- Tested on: human Factor 7 mRNA
- Protocol summary: Dose-dependent antisense inhibition of human Factor 7 in HepB3 cells, lipofectin
- Assay type: cell-based
- Condition: 100 nM, HepB3 cells, approx. 16 hours (Table 14)
Strand notation (5' to 3'): a small letter for the sugar, then the base; units joined by * are phosphorothioate-linked, units joined directly phosphodiester-linked; [ ] holds rarer units or linkages, { } end groups; capitals alone tell only the bases. e = 2'-O-(2-methoxyethyl) (MOE); [5mC] = 5-methylcytosine; d = 2'-deoxy (DNA)
Tag: Condition met if measured percent inhibition of Factor 7 mRNA, relative to untreated control cells is not below 80%, Condition not met if it is.

# example entries with known answers
{"columns": ["Substance", "Cat"],
 "data": [
  ["422142 (antisense eG*eA*eG*eT*eT*d[5mC]*dT*dG*d[5mC]*dA*dG*dG*dA*dG*d[5mC]*eG*eG*e[5mC]*e[5mC]*eT) [compound 422142]", "Condition not met"],
  ["422217 (antisense eG*eA*eG*dT*dT*d[5mC]*dT*dG*d[5mC]*dA*dG*dG*dA*dG*d[5mC]*dG*dG*e[5mC]*e[5mC]*eT) [compound 422217]", "Condition met"]
]}

Incoming: Is it the case that 422140 (antisense eG*eT*eT*e[5mC]*eT*dG*d[5mC]*dA*dG*dG*dA*dG*d[5mC]*dG*dG*e[5mC]*e[5mC]*eT*eA*eA) [compound 422140] has percent inhibition of Factor 7 mRNA, relative to untreated control cells reaching or exceeding 80%?
Outgoing: Condition not met

Incoming: Exam item: decide whether the reported percent inhibition of Factor 7 mRNA, relative to untreated control cells for 422183 (antisense eG*e[5mC]*eG*d[5mC]*d[5mC]*dA*d[5mC]*d[5mC]*d[5mC]*dG*d[5mC]*d[5mC]*dG*dG*d[5mC]*dT*d[5mC]*eT*eG*e[5mC]) [compound 422183] is at least 80%.
Outgoing: Condition met

Incoming: Does 422292 (antisense eG*eT*dT*d[5mC]*dT*dG*d[5mC]*dA*dG*dG*dA*dG*d[5mC]*dG*dG*e[5mC]*e[5mC]*eT*eA*eA) [compound 422292] have a reported percent inhibition of Factor 7 mRNA, relative to untreated control cells of at least 80%?
Outgoing: Condition met

Incoming: Is reported percent inhibition of Factor 7 mRNA, relative to untreated control cells greater than or equal to 80% here: 422152 (antisense eA*eT*eG*d[5mC]*dA*dT*dG*dG*dT*dG*dA*dT*dG*d[5mC]*dT*dT*d[5mC]*eT*eG*eA) [compound 422152]
Outgoing: Condition met
